Hello, the source for this data is patent US4652575A, in case you need it.

# inhibition at 0.1 µM values compiled below
ASSAYED TARGET: histamine H2 receptors (Cavia porcellus, UniProt P47747)
Construct: tests on insulated atrium auricolas of Guinea pig heart; from tissue; host or cells: isolated guinea pig heart atrium
Sequence (P47747 whole entry): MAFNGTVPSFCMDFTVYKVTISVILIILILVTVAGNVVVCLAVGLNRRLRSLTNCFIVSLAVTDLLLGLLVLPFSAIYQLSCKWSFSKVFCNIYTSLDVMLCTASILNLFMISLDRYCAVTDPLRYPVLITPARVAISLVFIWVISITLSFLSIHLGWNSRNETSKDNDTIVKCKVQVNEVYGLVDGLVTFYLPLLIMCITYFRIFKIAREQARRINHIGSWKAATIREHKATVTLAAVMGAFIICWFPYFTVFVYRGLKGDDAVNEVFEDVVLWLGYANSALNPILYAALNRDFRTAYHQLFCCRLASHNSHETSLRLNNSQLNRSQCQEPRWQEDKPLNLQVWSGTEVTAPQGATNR
ASSAY EXPLANATION: Antagonistic activity to the histamine H2 receptors "in vitro" on insulated atrium auricolas of Guinea pig heart
RUN CONDITIONS: guinea pig, 0.5 h, compound 1·10^-7 M/L; histamine 1·10^-6 M/L; read-out: Antagonizing activity to histamine H2 receptors
Number only, in %; omit the unit.

stdin: Jot down inhibition at 0.1 µM (histamine H2 receptors (Cavia porcellus, UniProt P47747)) of CN/C(=N/CCSCc1nc[nH]c1C)NC#N [Cimetidine, reference compound] .
stdout: 45

stdin: Fill in inhibition at 0.1 µM for CN(C)Cc1ccc(CSCCNc2nc(-c3ccccc3)cs2)o1 tested with histamine H2 receptors (Cavia porcellus, UniProt P47747).
stdout: 50

stdin: State the measured inhibition at 0.1 µM (histamine H2 receptors (Cavia porcellus, UniProt P47747)) of CN(C)Cc1ccc(CSCCNc2nc(-c3ccc4ccccc4c3)cs2)o1
stdout: 70

stdin: State recorded inhibition at 0.1 µM with histamine H2 receptors (Cavia porcellus, UniProt P47747), entry CN(C)Cc1ccc(CSCCNc2nc(-c3ccc(-c4ccccc4)cc3)cs2)o1 , no comment.
stdout: 65

stdin: Fill: inhibition at 0.1 µM (histamine H2 receptors (Cavia porcellus, UniProt P47747)) for this compound CN(C)Cc1ccc(CSCCNc2nc(-c3ccc(Oc4ccccc4)cc3)cs2)o1
stdout: 50

stdin: Under histamine H2 receptors (Cavia porcellus, UniProt P47747): report inhibition at 0.1 µM of CN(C)Cc1ccc(CSCCNC(=S)NC(=O)c2ccccc2)o1 .
stdout: 65

stdin: State the measured inhibition at 0.1 µM (histamine H2 receptors (Cavia porcellus, UniProt P47747)) of CN(C)Cc1ccc(CSCCNc2nc(C=Cc3ccccc3)cs2)o1
stdout: 45

---

ASSAYED TARGET: histamine H2 receptors (Cavia porcellus, UniProt P47747)
Construct: tests on insulated atrium auricolas of Guinea pig heart; from tissue; host or cells: isolated guinea pig heart atrium
ASSAY EXPLANATION: Antagonistic activity to the histamine H2 receptors "in vitro" on insulated atrium auricolas of Guinea pig heart
RUN CONDITIONS: guinea pig, 0.5 h, compound 1·10^-6 M/L; histamine 1·10^-6 M/L; read-out: Antagonizing activity to histamine H2 receptors
MEASURED PARAMETER: inhibition at 1 µM
// unit must come after the numeric part

>>> result("CN(C)Cc1ccc(CSCCNc2nc(C=Cc3ccccc3)cs2)o1 [Example No. 4]")
"70%"
>>> result("CN/C(=N/CCSCc1nc[nH]c1C)NC#N [Cimetidine, reference compound]")
"90%"
>>> result("CN(C)Cc1ccc(CSCCNc2nc(-c3ccc(-c4ccccc4)cc3)cs2)o1 [Example No. 5]")
"70%"
>>> result("CN(C)Cc1ccc(CSCCNc2nc(-c3ccccc3)cs2)o1 [Example No. 3]")
"85%"
>>> result("CN(C)Cc1ccc(CSCCNc2nc(-c3ccc4ccccc4c3)cs2)o1 [Example No. 6]")
"90%"

stdin: # return inhibition at 1 µM of CN(C)Cc1ccc(CSCCNC(=S)NC(=O)c2ccccc2)o1 [Example No. 1] (system: histamine H2 receptors (Cavia porcellus, UniProt P47747))
stdout: 80%

stdin: Report inhibition at 1 µM on histamine H2 receptors (Cavia porcellus, UniProt P47747) for this entry: CN(C)Cc1ccc(CSCCNc2nc(-c3ccc(Oc4ccccc4)cc3)cs2)o1 [Example No. 13]
stdout: 80%

---

Tested on: gastric secretion
ASSAY EXPLANATION: Activity on gastric secretion "in vivo" (volume and total acidity of gastric juice after pylorus tieing, Shay)
Design: species or system male Wistar rats
RUN CONDITIONS: Rattus norvegicus, po; per os, 1 hour before pilorus tieing; read-out: DE50 in rat calculated on total acidity (mEq/4 hours)
MEASURED PARAMETER: ED50 (mg/kg)
Write it as a number; the unit mg/kg goes unstated.

The examples below pair each entry with its known result.
>>> measured_number("CN(C)Cc1ccc(CSCCNc2nc(-c3ccc(Oc4ccccc4)cc3)cs2)o1 [Example No. 13]")
2.6
>>> measured_number("CNC(=C[N+](=O)[O-])NCCSCc1ccc(CN(C)C)o1 [Ranitidine, reference compound]")
5.2
>>> measured_number("CN(C)Cc1ccc(CSCCNc2nc(-c3ccccc3)cs2)o1 [Example No. 3]")
2.2
>>> measured_number("CN(C)Cc1ccc(CSCCNC(=S)NC(=O)c2ccccc2)o1 [Example No. 1]")
3.4
>>> measured_number("CN(C)Cc1ccc(CSCCNc2nc(C=Cc3ccccc3)cs2)o1 [Example No. 4]")
3.2
>>> measured_number("CN(C)Cc1ccc(CSCCNc2nc(-c3ccc4ccccc4c3)cs2)o1 [Example No. 6]")
1.8

Here is the next item to consider.
stdin: Respond only with ED50 recorded for CN(C)Cc1ccc(CSCCNc2nc(-c3ccc(-c4ccccc4)cc3)cs2)o1 [Example No. 5]
stdout: 1.6

---

ASSAY EXPLANATION: in vivo
RUN CONDITIONS: rat, po
Simple rule here: LD50 less than 3000 mg/kg is met, otherwise not met.

Example cases with answers are listed next.
>>> label("CN(C)Cc1ccc(CSCCNc2nc(-c3ccc4ccccc4c3)cs2)o1")
"met"
>>> label("CN(C)Cc1ccc(CSCCNc2nc(-c3ccc(-c4ccccc4)cc3)cs2)o1")
"not met"
>>> label("CN(C)Cc1ccc(CSCCNC(=S)NC(=O)c2ccccc2)o1")
"met"
>>> label("CN(C)Cc1ccc(CSCCNc2nc(-c3ccccc3)cs2)o1")
"met"

Then this compound:
stdin: For CN(C)Cc1ccc(CSCCNc2nc(-c3ccc(Oc4ccccc4)cc3)cs2)o1 , is the recorded LD50 below the cut-off of 3000 mg/kg?
stdout: not met

---

Property: Volume gastric juice secretion; scope: individual compounds
Test system: gastric secretion
ASSAY EXPLANATION: Activity on gastric secretion "in vivo" (volume and total acidity of gastric juice after pylorus tieing, Shay)
Set-up: species or system male Wistar rats
RUN CONDITIONS: 20 mg/kg oral, 6 hours before pilorus tieing

>>> result("CN(C)Cc1ccc(CSCCNc2nc(C=Cc3ccccc3)cs2)o1 [Example No. 4]")
"3,9 ml/4 hours"
>>> result("CN(C)Cc1ccc(CSCCNc2nc(-c3ccccc3)cs2)o1 [Example No. 3]")
"4,0 ml/4 hours"
>>> result("CN(C)Cc1ccc(CSCCNC(=S)NC(=O)c2ccccc2)o1 [Example No. 1]")
"4,1 ml/4 hours"
>>> result("CNC(=C[N+](=O)[O-])NCCSCc1ccc(CN(C)C)o1 [Ranitidine, reference compound]")
"4,8 ml/4 hours"

stdin: Find the measured Volume gastric juice secretion of CN(C)Cc1ccc(CSCCNc2nc(-c3ccc4ccccc4c3)cs2)o1 [Example No. 6] and report it.
stdout: 3,0 ml/4 hours

stdin: For the compound CN(C)Cc1ccc(CSCCNc2nc(-c3ccc(-c4ccccc4)cc3)cs2)o1 [Example No. 5] , report Volume gastric juice secretion.
stdout: 3,7 ml/4 hours

stdin: Name the recorded Volume gastric juice secretion of the item CN(C)Cc1ccc(CSCCNc2nc(-c3ccc(Oc4ccccc4)cc3)cs2)o1 [Example No. 13] in your answer.
stdout: 3,9 ml/4 hours

---

ASSAYED TARGET: histamine H2 receptors (Cavia porcellus, UniProt P47747)
Construct: tests on insulated atrium auricolas of Guinea pig heart; from tissue; host or cells: isolated guinea pig heart atrium
ASSAY EXPLANATION: Antagonistic activity to the histamine H2 receptors "in vitro" on insulated atrium auricolas of Guinea pig heart
RUN CONDITIONS: guinea pig, 0.5 h, compound 1·10^-6 M/L; histamine 2,5·10^-7 M/L; read-out: Antagonizing activity to histamine H2 receptors
inhibition at 1 µM for assorted compounds
// units = %; emit number, no label

These solved cases illustrate the format of a correct answer.
>>> measured_number("CN/C(=N/CCSCc1nc[nH]c1C)NC#N [Cimetidine, reference compound]")
100
>>> measured_number("CN(C)Cc1ccc(CSCCNc2nc(C=Cc3ccccc3)cs2)o1 [Example No. 4]")
100
>>> measured_number("CN(C)Cc1ccc(CSCCNc2nc(-c3ccc(-c4ccccc4)cc3)cs2)o1 [Example No. 5]")
100
>>> measured_number("CN(C)Cc1ccc(CSCCNc2nc(-c3ccc(Oc4ccccc4)cc3)cs2)o1 [Example No. 13]")
90
>>> measured_number("CN(C)Cc1ccc(CSCCNc2nc(-c3ccc4ccccc4c3)cs2)o1 [Example No. 6]")
100

stdin: State its inhibition at 1 µM for this compound: CN(C)Cc1ccc(CSCCNc2nc(-c3ccccc3)cs2)o1 [Example No. 3]
stdout: 100

stdin: Answer with reported inhibition at 1 µM of CN(C)Cc1ccc(CSCCNC(=S)NC(=O)c2ccccc2)o1 [Example No. 1]
stdout: 100
